Items are presented alongside their recorded GI50.
- Tested on: UACC-257 melanoma
- Test details: NCI tumour cell line growth inhibition, 48 h

Example cases with answers are listed next.
[[record]]
molecule = "O=C1C(=O)c2c(nc3ccc(Br)cn23)-c2ccccc21"
parameter = "GI50"
reading = "0.747 µM"

[[record]]
molecule = "CCN1C(=O)N(CC)C2Nn3c(s/c(=C\\c4ccccc4Br)c3=O)=NC21 (stereo not given)"
parameter = "GI50"
reading = "12.9 µM"

[[record]]
molecule = "COc1cc2nc(SCC(=O)Nc3cc(OC)c(OC)c(OC)c3)n(Cc3ccccc3)c(=O)c2cc1OC"
parameter = "GI50"
reading = "3.55 µM"

[[record]]
molecule = "CC(=O)c1cc(C(=O)c2ccc3c(c2)Sc2ccccc2N3)c2c(C)cc(C)cn12"
parameter = "GI50"
reading = "2.04 µM"


Data request: Which GI50 is reported for this molecule? NC(N)=N/N=C/c1c(-c2cc(Cl)sc2Cl)nc2sccn12
Data returned: 8.6 µM
